# Tested target: PmSiaT (Proteus mirabilis, UniProt B4EZY7)
# Construct: made in house
# Sequence (B4EZY7 whole entry): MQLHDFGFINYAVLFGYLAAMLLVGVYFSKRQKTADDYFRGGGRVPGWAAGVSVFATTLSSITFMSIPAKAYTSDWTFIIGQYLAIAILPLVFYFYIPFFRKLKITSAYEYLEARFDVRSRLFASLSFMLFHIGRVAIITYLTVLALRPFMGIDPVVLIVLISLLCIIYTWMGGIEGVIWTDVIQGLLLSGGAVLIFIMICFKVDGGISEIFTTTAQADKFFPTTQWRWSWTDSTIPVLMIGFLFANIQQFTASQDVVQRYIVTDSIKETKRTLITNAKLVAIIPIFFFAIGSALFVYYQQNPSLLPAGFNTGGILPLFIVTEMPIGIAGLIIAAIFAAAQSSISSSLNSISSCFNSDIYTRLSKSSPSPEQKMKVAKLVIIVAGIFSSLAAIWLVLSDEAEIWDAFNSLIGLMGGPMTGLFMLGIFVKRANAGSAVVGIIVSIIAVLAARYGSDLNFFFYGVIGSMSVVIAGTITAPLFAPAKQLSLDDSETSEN
# Experiment description: nanoDSF thermal shift assay, PmSiaT
# Type: binding
# Condition summary: PmSiaT Tm, experiment 1, second capillary, 1.25 mM
Assay readout: Replicate 1 (°C)

1) O=C(Cc1ccccc1)NC1C(O)CC(O)(C(=O)O)OC1C(O)C(O)CO (stereo not drawn) : 45.5
2) CC(=O)NC1C(OCc2cc(Br)cc(Br)c2)CC(O)(C(=O)O)OC1C(O)C(O)CO (stereo not drawn) : 64.2
3) CC(=O)NC1C(OCc2cc(F)cc(F)c2)CC(O)(C(=O)O)OC1C(O)C(O)CO (stereo not drawn) : 56.8
4) CC(C)C(=O)NC1C(O)CC(O)(C(=O)O)OC1C(O)C(O)CO (stereo not drawn) : 47.1
5) CC(C)(C)C(=O)NC1C(O)CC(O)(C(=O)O)OC1C(O)C(O)CO (stereo not drawn) : 46.3
6) CC(=O)NC1C(OCc2ccc(F)cc2)CC(O)(C(=O)O)OC1C(O)C(O)CO (stereo not drawn) : 53.4
7) CC(=O)NC1C(O)CC(O)(C(=O)O)OC1C(O)C(O)CCl (stereo not drawn) : 47.8
8) CC(=O)NC1C(OCc2ccc(Br)cc2)CC(O)(C(=O)O)OC1C(O)C(O)CO (stereo not drawn) : 56.7
9) CC(=O)NC1C(O)CC(O)(C(=O)O)OC1C(O)C(O)CI (stereo not drawn) : 46.7
10) O=C(CF)NC1C(O)CC(O)(C(=O)O)OC1C(O)C(O)CO (stereo not drawn) : 47.4
11) CC(=O)NC1C(OCc2ccc(C#N)cc2)CC(O)(C(=O)O)OC1C(O)C(O)CO (stereo not drawn) : 55.4
12) CC(=O)N[C@H]1[C@H]([C@H](O)[C@H](O)CO)OC(O)(C(=O)O)C[C@@H]1O (stereo partly drawn) [Neu5Ac, 5-N-acetyl neuraminic acid, reference compound] : 48.8
13) O=C(CO)N[C@H]1[C@H]([C@H](O)[C@H](O)CO)OC(O)(C(=O)O)C[C@@H]1O (stereo partly drawn) [Neu5Gc, 5-N-glycolyl neuraminic acid, reference compound] : 48.0
14) O=C(CCl)NC1C(O)CC(O)(C(=O)O)OC1C(O)C(O)CO (stereo not drawn) : 49.7
15) CC(=O)NC1C(OCc2ccccc2)CC(O)(C(=O)O)OC1C(O)C(O)CO (stereo not drawn) : 54.6
16) CC(=O)NC1C(O)CC(O)(C(=O)O)OC1C(O)C(O)CN=[N+]=[N-] (stereo not drawn) : 45.9
17) O=C(NC1C(O)CC(O)(C(=O)O)OC1C(O)C(O)CO)c1ccccc1 (stereo not drawn) : 45.2
18) CC(=O)NC1C(O)CC(O)(C(=O)O)OC1C(O)C(O)CBr (stereo not drawn) : 47.4
19) CCC(=O)NC1C(O)CC(O)(C(=O)O)OC1C(O)C(O)CO (stereo not drawn) : 46.8
20) CCSCC(O)C(O)C1OC(O)(C(=O)O)CC(O)C1NC(C)=O (stereo not drawn) : 45.9
21) [N-]=[N+]=NCC(=O)N[C@H]1[C@H]([C@H](O)[C@H](O)CO)O[C@@](O)(C(=O)O)C[C@@H]1O [Compound 6h, reference compound] : 49.2
22) CSCC(O)C(O)C1OC(O)(C(=O)O)CC(O)C1NC(C)=O (stereo not drawn) : 45.8
23) CC(=O)N[C@H]1[C@H]([C@H](O)[C@H](O)CO)OC(C(=O)O)=C[C@@H]1O [Compound 9, reference compound] : 45.7
24) CC(=O)NC1C(O)CC(O)(C(=O)O)OC1C(O)C(C)O (stereo not drawn) : 46.0
